Molecular target: SUR1^W51C/Kir6.2 channel (UniProt P70673+Q09427, W51C)
Sequence (P70673 whole entry): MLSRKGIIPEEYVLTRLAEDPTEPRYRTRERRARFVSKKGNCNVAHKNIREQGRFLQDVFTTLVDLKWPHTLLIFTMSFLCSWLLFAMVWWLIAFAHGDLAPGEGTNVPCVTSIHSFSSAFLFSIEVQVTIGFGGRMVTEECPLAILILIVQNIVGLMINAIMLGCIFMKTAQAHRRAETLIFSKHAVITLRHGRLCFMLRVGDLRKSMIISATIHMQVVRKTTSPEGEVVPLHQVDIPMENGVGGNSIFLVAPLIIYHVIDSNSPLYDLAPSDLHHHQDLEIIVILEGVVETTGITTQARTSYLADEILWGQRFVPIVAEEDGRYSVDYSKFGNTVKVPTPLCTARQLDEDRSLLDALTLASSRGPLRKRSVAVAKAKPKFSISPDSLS
Sequence (Q09427 whole entry W51C): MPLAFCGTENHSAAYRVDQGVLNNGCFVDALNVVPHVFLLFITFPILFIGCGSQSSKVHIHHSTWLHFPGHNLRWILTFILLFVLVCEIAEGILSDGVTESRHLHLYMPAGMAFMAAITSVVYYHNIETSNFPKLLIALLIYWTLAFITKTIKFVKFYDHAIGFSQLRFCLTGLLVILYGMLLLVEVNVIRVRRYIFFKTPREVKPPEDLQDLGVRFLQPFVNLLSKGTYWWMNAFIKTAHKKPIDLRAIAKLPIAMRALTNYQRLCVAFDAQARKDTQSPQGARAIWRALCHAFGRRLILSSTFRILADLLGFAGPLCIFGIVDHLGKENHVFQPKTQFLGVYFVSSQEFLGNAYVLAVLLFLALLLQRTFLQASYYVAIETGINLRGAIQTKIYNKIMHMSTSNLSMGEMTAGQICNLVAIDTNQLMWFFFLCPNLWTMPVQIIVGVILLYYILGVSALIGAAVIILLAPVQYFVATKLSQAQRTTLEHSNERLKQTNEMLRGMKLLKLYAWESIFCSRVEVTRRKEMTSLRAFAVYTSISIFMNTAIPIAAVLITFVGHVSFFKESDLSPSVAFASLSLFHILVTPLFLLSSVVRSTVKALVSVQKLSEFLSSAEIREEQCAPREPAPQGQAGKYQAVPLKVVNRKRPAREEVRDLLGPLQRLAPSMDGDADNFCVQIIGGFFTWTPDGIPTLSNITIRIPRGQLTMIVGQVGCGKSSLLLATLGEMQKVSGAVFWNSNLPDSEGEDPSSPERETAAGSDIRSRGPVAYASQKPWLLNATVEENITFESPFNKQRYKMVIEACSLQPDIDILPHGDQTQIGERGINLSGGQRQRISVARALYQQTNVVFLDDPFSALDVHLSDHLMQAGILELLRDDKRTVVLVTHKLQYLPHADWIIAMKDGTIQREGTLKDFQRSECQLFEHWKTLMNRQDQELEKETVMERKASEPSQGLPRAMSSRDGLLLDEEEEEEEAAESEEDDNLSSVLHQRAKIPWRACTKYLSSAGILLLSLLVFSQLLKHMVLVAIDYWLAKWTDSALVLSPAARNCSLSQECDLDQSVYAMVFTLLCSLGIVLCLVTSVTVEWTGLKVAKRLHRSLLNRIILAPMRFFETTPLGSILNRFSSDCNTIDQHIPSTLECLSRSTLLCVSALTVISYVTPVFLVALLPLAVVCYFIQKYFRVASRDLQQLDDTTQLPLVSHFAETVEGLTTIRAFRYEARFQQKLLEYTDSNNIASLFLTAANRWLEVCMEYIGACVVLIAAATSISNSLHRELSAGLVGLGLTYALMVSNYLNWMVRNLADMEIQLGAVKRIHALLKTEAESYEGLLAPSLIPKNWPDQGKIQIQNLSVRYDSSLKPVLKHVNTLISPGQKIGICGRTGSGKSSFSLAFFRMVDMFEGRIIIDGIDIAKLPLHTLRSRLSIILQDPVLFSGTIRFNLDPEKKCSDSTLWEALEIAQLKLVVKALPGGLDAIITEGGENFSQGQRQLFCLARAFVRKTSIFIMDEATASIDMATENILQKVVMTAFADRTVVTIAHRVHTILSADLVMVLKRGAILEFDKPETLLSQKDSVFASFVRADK
Experiment: ATP inhibition, inside-out patch-clamp recording, COSm6 cells
Settings: mean ± SEM; Hill fit; −50 mV; K-INT
measured property: IC50 (µM)
Field: numeric (µM). Do not append units.

query: IC50 lookup needed for `Nc1ncnc2c1ncn2[C@@H]1O[C@H](COP(=O)(O)OP(=O)(O)OP(=O)(O)O)[C@@H](O)[C@H]1O` , thanks.
result: 20.9

====

Target: SUR1/Kir6.2^Q52R channel (UniProt P70673+Q09427, Q52R)
Sequence (P70673 whole entry Q52R): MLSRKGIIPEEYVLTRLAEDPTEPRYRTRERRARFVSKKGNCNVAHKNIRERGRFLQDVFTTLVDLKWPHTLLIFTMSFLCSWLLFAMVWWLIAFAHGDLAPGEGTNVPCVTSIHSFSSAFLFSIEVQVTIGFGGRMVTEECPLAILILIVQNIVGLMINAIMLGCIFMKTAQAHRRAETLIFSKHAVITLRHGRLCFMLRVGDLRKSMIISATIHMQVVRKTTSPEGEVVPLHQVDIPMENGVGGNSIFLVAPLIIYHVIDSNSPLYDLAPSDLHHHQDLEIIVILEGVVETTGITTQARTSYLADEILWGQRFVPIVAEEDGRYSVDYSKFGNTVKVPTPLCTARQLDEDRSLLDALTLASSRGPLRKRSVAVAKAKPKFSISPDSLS
Sequence (Q09427 whole entry): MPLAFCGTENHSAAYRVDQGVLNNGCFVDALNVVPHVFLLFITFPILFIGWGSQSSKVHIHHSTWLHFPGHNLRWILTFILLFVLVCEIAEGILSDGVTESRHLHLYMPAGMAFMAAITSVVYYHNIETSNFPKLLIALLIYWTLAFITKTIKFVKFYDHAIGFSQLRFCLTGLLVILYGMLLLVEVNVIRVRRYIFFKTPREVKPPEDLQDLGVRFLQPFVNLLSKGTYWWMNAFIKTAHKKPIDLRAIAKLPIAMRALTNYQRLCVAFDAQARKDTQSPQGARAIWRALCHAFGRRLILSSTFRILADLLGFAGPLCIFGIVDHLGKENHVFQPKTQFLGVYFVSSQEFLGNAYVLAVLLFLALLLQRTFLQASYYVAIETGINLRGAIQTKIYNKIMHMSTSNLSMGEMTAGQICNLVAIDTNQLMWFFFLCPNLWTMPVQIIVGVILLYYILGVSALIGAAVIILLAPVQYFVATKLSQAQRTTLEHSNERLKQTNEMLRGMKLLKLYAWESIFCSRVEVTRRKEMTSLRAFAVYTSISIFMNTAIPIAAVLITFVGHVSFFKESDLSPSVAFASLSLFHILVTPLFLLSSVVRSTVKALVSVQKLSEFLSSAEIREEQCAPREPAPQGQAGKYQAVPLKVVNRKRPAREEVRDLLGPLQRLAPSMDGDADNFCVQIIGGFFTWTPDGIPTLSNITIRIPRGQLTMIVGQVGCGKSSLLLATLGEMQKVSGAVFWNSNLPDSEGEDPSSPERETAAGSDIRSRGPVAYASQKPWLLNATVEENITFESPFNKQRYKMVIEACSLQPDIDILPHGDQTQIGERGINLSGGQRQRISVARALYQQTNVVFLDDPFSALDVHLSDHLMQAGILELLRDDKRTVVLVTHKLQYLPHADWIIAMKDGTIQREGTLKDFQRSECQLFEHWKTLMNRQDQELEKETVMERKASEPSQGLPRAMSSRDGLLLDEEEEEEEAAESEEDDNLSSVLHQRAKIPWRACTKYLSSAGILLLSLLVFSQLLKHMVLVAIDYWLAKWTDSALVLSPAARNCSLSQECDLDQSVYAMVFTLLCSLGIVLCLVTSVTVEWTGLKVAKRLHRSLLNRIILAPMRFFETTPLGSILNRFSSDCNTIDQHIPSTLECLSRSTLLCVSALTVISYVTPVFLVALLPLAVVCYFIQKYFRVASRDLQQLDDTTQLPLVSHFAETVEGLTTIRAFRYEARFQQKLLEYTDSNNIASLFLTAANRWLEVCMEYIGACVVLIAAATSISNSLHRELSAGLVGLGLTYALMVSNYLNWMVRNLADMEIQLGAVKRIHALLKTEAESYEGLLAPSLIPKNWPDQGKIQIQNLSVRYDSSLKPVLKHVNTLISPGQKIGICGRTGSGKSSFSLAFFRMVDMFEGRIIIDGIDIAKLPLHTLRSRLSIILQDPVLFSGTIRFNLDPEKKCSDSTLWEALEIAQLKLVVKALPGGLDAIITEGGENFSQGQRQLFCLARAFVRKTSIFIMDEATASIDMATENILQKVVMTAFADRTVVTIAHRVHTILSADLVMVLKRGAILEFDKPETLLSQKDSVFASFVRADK
Assay: ATP inhibition, inside-out patch-clamp recording, COSm6 cells
Conditions: mean ± SEM; Hill fit; −50 mV; K-INT
measured property: pIC50
FYI, pIC50 means -log10 of a concentration in mol per litre.

query: Record request: pIC50 value, item Nc1ncnc2c1ncn2[C@@H]1O[C@H](COP(=O)(O)OP(=O)(O)OP(=O)(O)O)[C@@H](O)[C@H]1O [ATP]
result: 3.79
